System: A. baumannii CAN-ICU 63169
Assay type: cell-based
Protocol: The synthesized SPRLPs were evaluated for their antibacterial potency against a panel of Gram-positive and Gram-negative bacteria (Tables 2 & 3). Some of the included pathogens were collected from patients visiting or admitted to participating Canadian hospitals through the CAN-ICU (27) and CANWARD (28) national surveillance studies. Antibacterial activity was assessed using minimum inhibitory concentration (MIC) against various clinical pathogens. […]
Peptide text beside a SMILES is read from it. * marks the point of attachment. Acetyl(1-adamantyl) = O=C(CC12CC3CC(CC(C3)C1)C2)*; Palmitoyl = CCCCCCCCCCCCCCCC(=O)*; Lauroyl = CCCCCCCCCCCC(=O)*; Octanoyl = CCCCCCCC(=O)*
MIC values, listed per item

// worked examples, MIC included
* CCCCCCCCCCCC(=O)N1CCC[C@H]1C(=O)N[C@@H](CCCNC(=N)N)C(=O)N1CCC[C@H]1C(=O)N[C@@H](CC(C)C)C(=O)N1CCC[C@H]1C(=O)N[C@@H](CCCNC(=N)N)C(=O)N1CCC[C@H]1C(N)=O [Compound C12-PLP, CH3(CH2)10CO-PRPLPRP-NH2] (Lauroyl-PRPLPRP-NH2) | >128 mg/L
* CCCCCCCCCCCCCCCC(=O)N1CCC[C@H]1C(=O)N[C@@H](CCCNC(=N)N)C(=O)N1CCC[C@H]1C(=O)N[C@@H](CCCNC(=N)N)C(=O)N1CCC[C@H]1C(=O)N[C@@H](CCCNC(=N)N)C(=O)N1CCC[C@H]1C(N)=O [Compound C16-PRP, CH3(CH2)14CO-PRPRPRP-NH2] (Palmitoyl-PRPRPRP-NH2) | 16 mg/L
* CCCCCCCCCCCC(=O)N1CCC[C@H]1C(=O)N[C@@H](CCCNC(=N)N)C(=O)N1CCC[C@H]1C(=O)N[C@@H](Cc1c[nH]c2ccccc12)C(=O)N1CCC[C@H]1C(=O)N[C@@H](CCCNC(=N)N)C(=O)N1CCC[C@H]1C(N)=O [Compound C12-PWP, CH3(CH2)10CO-PRPWPRP-NH2] (Lauroyl-PRPWPRP-NH2) | 128 mg/L
* CC(C)C[C@H](NC(=O)[C@@H]1CCCN1C(=O)[C@H](CCCNC(=N)N)NC(=O)[C@@H]1CCCN1C(=O)CC12CC3CC(CC(C3)C1)C2)C(=O)N1CCC[C@H]1C(=O)N[C@@H](CCCNC(=N)N)C(=O)N1CCC[C@H]1C(N)=O [Ad-PLP, Adamantyl-CH2CO-PRPLPRP-NH2] ({Acetyl(1-adamantyl)}-PRPLPRP-NH2) | >128 mg/L
* N=C(N)NCCC[C@H](NC(=O)[C@@H]1CCCN1C(=O)[C@H](Cc1c[nH]c2ccccc12)NC(=O)[C@@H]1CCCN1C(=O)[C@H](CCCNC(=N)N)NC(=O)[C@@H]1CCCN1C(=O)CC12CC3CC(CC(C3)C1)C2)C(=O)N1CCC[C@H]1C(N)=O [Ad-PWP, Adamantyl-CH2CO-PRPWPRP-NH2] ({Acetyl(1-adamantyl)}-PRPWPRP-NH2) | >128 mg/L
* CCCCCCCC(=O)N1CCC[C@H]1C(=O)N[C@@H](CCCNC(=N)N)C(=O)N1CCC[C@H]1C(=O)N[C@@H](CC(C)C)C(=O)N1CCC[C@H]1C(=O)N[C@@H](CCCNC(=N)N)C(=O)N1CCC[C@H]1C(N)=O [Compound C8-PLP, CH3(CH2)6CO-PRPLPRP-NH2] (Octanoyl-PRPLPRP-NH2) | >128 mg/L

What value of MIC has been reported for the following molecule? CCCCCCCCCCCC(=O)N1CCC[C@H]1C(=O)N[C@@H](CCCNC(=N)N)C(=O)N1CCC[C@H]1C(=O)N[C@@H](CCCNC(=N)N)C(=O)N1CCC[C@H]1C(=O)N[C@@H](CCCNC(=N)N)C(=O)N1CCC[C@H]1C(N)=O [Compound C12-PRP, CH3(CH2)10CO-PRPRPRP-NH2] (Lauroyl-PRPRPRP-NH2)
>128 mg/L

Param item = CCCCCCCCCCCCCCCC(=O)N1CCC[C@H]1C(=O)N[C@@H](CCCNC(=N)N)C(=O)N1CCC[C@H]1C(=O)NCC(=O)N1CCC[C@H]1C(=O)N[C@@H](CCCNC(=N)N)C(=O)N1CCC[C@H]1C(N)=O [Compound C16-PGP, CH3(CH2)14CO-PRPGPRP-NH2] (Palmitoyl-PRPGPRP-NH2) ; retrieve measured MIC.
32 mg/L
